measurement_description: Part 1: mobocertinib-itraconazole DDI study, plasma PK
Assay type: in vivo, human
test_conditions: human, plasma, oral, Cmax, Geometric Means (%CV), mobocertinib 20 mg + itraconazole 200 mg once daily (test), plasma
readout: Cmax

Consider the compound shown here: C=CC(=O)Nc1cc(Nc2ncc(C(=O)OC(C)C)c(-c3cn(C)c4ccccc34)n2)c(OC)cc1N(C)CCN(C)C [Mobocertinib] What is its recorded Cmax?
21.1 ng/mL

---

measurement_description: Part 1: mobocertinib-itraconazole DDI study, plasma PK
Assay type: in vivo, human
test_conditions: human, plasma, oral, Cmax, Arithmetic Means (SD), mobocertinib 20 mg + itraconazole 200 mg once daily (test), plasma; footnote a: mean (%CV)
readout: Cmax (ng/mL)
Respond numerically; units are ng/mL and should not be typed.

Consider the compound shown here: C=CC(=O)Nc1cc(Nc2ncc(C(=O)OC(C)C)c(-c3cn(C)c4ccccc34)n2)c(OC)cc1N(C)CCN(C)C [Mobocertinib] What is its recorded Cmax?
21.5
